# System: biotinyl-Leu-oxazolone
# EXPERIMENTAL DETAILS: self-aminoacylation, catalytic enhancement (BLO) (fold over background); higher = more active; k-Seq, kA / k0A0; sequences stand for … in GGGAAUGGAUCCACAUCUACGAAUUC…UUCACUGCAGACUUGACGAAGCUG
This sample holds only a part of the variants without activity.
Measured self-aminoacylation values are reported for all entries that follow.
Number only, please.

Worked examples, 2 sequences total:
AAGUUUGCUAAUAGUAGCACG [Fam3.1 aminoacylation ribozyme variant] : 0.619
CUACUUCAAACAUUCGUUCUG [Fam1A.1 aminoacylation ribozyme variant] : 0.659

Lab note: sequence AUUCAGAUAGGUCAUCGGGUG [Fam2.2 aminoacylation ribozyme variant] tested on biotinyl-Leu-oxazolone; recorded self-aminoacylation was 7.3

Lab note: sequence AUUAGCCUGGUCAUCUAGUGA [Fam2.1 aminoacylation ribozyme variant] tested on biotinyl-Leu-oxazolone; recorded self-aminoacylation was 5.06

Lab note: sequence AUUACCCAAGUCAUCGAGUGA [Fam2.1 aminoacylation ribozyme variant] tested on biotinyl-Leu-oxazolone; recorded self-aminoacylation was 9.5

Lab note: sequence UUACUUGAAACAAUCGGUCUG [Fam1A.1 aminoacylation ribozyme variant] tested on biotinyl-Leu-oxazolone; recorded self-aminoacylation was 1.11

Lab note: sequence AAGUUUGCUUAUAGUGGCAAG [Fam3.1 aminoacylation ribozyme variant] tested on biotinyl-Leu-oxazolone; recorded self-aminoacylation was 0.644

Lab note: sequence AAGUUUGCUAUGAGUCGCAAG [Fam3.1 aminoacylation ribozyme variant] tested on biotinyl-Leu-oxazolone; recorded self-aminoacylation was 0.778
